biological target: human ApoC3 (huApoC3), native protein purified from human serum (human, UniProt P02656 21-99); test: cell-based or functional assay; note: test concentration or dose not given here
Sequence (P02656 21-99): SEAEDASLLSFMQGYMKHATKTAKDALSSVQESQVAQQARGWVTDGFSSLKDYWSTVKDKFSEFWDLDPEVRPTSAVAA
Experimental Endpoint: attenuation of the ability of ApoC3 to inhibit VLDL uptake by HepG2 cells

>  <Binder>
14G4 scFv-Fc (Fc fusion) VH: QVQLVESGGGLVQPGGSLRLSCAASGFAFSRYTMNWVRQAPGKGLEWLSAISPDGGKTIDADSVKGAFASSRDNTMNTLYLDMNSLKPEDAAVYYCVAGHNMDYWGKGILVTVSS VL: DVVLTQTPGSLSVVPGESASISCKASQSLVHSDGKTYLYWLLQKPGQSPQRLIYQVSNQGSGVPDRFTGSGSGTDFTLKISGVKAEDAGVYYCAQATYTPRTFGQGTTLEVK

>  <Result>
~100%

$$$$
>  <Binder>
12A3 scFv-Fc (Fc fusion) VH: ELQLVESGGGLVQSGGSLRLSCAASGFTFSNYAMRWVRQAPGGRLEWVSSINIAGSSVVYADSVKGRFTISRDNAKNTLYLQMNSLKSEDTAVYYCAMQGFVYWGQGTQVTVSS VL: DVVLTQTPGSLSVVPGESANISCKAGRSLVHSDGRTYLYWLLQKPGQSPQRLIYQVSNRSSGVPDRFTGSGSGTDFTLKITGVKAEDAGVYYCAQGTYYPVTFGQGTKVELK

>  <Result>
~100%

$$$$

Origin of measurements: patent US20190241648A1
